Recorded values, source ChEMBL document CHEMBL1154342.

// CL/F lookup, one value per entry
tested on: Rattus norvegicus; experiment: Apparent oral clearance in rat at 10 mg/kg, po; conditions: in vivo

COMPOUND STRUCTURE STRING: O=C(CC(c1ccccc1)c1ccccc1)N1CCN(C(c2ccccc2)c2ccccc2)CC1
CL/F (mL/min/kg): 164

COMPOUND STRUCTURE STRING: COc1cc(C(=O)N2CCN(CCCCCC(c3ccc(F)cc3)c3ccc(F)cc3)CC2)cc(OC)c1OC
CL/F (mL/min/kg): 170

----------
assay: Cmax in rat at 2 mg/kg, iv; assay type: ADME, organism-based; parameters: dose 2 mg/kg, route intravenous; conditions: in vivo
// Cmax lookup, one value per entry

COMPOUND STRUCTURE STRING: COc1cc(C(=O)N2CCN(CCCCCC(c3ccc(F)cc3)c3ccc(F)cc3)CC2)cc(OC)c1OC
Cmax: 462 ng/mL
--
COMPOUND STRUCTURE STRING: O=C(CC(c1ccccc1)c1ccccc1)N1CCN(C(c2ccccc2)c2ccccc2)CC1
Cmax: 771 ng/mL

----------
test: Half life in rat at 2 mg/kg, iv; assay type: ADME, organism-based; set-up: dose 2 mg/kg, route intravenous; details: in vivo
// half-life lookup, one value per entry
ATTRIBUTE MEASURED: half-life (h)

COMPOUND STRUCTURE STRING: COc1cc(C(=O)N2CCN(CCCCCC(c3ccc(F)cc3)c3ccc(F)cc3)CC2)cc(OC)c1OC
UNIT INFO: h
NUMBER: 5
//
COMPOUND STRUCTURE STRING: O=C(CC(c1ccccc1)c1ccccc1)N1CCN(C(c2ccccc2)c2ccccc2)CC1
UNIT INFO: h
NUMBER: 3.3

----------
// IC50 lookup, one value per entry
biological target: Voltage-dependent L-type calcium channel subunit beta-1/alpha-1B/alpha-2/delta-1 (Rattus norvegicus, UniProt Q02294); assay: Blocking of rat N-type calcium channel alpha-1B/alpha-2-delta-1/beta-1b activity expressed in HEK293 cells assessed as whole cell current by whole cell patch clamp assay
Sequence (Q02294 whole entry): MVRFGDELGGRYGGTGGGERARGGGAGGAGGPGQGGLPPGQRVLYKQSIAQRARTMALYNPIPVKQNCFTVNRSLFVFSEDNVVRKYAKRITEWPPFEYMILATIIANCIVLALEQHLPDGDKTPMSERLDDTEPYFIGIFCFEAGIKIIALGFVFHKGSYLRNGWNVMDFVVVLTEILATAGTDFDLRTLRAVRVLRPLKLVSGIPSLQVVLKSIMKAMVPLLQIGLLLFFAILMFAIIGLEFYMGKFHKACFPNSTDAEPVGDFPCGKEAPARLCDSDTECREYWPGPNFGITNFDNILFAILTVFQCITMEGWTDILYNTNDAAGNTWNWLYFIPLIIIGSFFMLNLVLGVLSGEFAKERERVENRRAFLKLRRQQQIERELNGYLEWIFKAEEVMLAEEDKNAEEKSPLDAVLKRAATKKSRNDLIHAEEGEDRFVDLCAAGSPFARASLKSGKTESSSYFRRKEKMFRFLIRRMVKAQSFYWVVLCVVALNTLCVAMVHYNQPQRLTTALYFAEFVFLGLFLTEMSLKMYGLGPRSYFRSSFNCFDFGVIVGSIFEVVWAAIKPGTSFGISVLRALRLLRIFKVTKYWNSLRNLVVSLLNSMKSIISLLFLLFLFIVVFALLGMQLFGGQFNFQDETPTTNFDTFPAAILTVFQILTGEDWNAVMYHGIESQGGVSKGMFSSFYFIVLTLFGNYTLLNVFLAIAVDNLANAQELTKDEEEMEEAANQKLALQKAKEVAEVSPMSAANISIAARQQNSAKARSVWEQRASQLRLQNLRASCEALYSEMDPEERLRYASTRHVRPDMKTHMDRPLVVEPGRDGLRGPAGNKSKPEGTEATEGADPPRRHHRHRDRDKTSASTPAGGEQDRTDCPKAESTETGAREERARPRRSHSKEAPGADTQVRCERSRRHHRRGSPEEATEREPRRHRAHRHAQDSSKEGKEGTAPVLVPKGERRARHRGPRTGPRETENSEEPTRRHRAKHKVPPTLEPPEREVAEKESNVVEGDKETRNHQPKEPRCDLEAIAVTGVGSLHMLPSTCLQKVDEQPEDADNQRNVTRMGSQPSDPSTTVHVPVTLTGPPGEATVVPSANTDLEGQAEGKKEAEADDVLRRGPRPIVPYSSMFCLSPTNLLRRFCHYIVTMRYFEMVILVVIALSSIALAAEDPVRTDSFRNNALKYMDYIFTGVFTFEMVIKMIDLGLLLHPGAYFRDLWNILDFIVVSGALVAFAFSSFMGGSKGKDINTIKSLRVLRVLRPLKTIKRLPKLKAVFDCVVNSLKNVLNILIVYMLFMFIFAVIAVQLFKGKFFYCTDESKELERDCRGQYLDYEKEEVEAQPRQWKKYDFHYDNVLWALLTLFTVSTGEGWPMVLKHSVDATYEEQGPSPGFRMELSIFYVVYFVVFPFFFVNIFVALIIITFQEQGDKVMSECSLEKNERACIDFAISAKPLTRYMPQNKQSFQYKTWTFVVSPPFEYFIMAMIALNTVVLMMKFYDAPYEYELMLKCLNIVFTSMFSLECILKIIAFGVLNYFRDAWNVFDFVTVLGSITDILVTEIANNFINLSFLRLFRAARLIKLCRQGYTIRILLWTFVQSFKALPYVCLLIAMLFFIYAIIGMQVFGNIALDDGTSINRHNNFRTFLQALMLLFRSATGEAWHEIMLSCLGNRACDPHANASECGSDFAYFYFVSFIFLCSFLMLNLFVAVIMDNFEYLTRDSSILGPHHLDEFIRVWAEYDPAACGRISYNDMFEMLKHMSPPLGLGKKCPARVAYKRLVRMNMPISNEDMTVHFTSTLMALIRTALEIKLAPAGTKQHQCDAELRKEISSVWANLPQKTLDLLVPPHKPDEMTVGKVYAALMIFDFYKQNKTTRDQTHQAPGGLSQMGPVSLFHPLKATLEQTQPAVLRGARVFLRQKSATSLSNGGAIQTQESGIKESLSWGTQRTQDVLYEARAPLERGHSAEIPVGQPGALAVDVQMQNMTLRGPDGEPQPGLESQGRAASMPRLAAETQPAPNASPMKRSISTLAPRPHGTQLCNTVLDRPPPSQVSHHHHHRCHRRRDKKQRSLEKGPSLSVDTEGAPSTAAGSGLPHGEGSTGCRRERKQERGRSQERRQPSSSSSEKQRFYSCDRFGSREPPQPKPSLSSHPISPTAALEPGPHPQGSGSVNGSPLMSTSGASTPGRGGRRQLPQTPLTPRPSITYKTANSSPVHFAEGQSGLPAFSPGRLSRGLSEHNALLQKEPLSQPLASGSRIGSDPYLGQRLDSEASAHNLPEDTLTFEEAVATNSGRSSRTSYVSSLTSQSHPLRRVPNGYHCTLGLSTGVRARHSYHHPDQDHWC
Sequence (P54283 whole entry partner): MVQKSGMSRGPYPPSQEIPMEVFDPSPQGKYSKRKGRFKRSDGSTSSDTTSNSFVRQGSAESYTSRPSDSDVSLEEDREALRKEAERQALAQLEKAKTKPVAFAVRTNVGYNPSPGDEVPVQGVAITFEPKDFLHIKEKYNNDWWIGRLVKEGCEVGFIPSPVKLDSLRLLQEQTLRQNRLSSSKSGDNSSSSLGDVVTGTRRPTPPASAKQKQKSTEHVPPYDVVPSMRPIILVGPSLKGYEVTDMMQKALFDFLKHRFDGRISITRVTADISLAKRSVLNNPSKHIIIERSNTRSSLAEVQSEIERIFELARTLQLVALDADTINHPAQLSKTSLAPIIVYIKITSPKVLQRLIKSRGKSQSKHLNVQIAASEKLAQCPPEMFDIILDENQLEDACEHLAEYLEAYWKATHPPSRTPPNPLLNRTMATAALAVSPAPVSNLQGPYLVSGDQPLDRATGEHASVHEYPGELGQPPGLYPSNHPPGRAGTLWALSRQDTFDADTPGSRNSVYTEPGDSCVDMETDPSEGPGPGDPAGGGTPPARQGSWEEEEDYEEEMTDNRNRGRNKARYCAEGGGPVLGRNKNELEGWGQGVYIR
Sequence (P54290 25-944 partner limits assumed): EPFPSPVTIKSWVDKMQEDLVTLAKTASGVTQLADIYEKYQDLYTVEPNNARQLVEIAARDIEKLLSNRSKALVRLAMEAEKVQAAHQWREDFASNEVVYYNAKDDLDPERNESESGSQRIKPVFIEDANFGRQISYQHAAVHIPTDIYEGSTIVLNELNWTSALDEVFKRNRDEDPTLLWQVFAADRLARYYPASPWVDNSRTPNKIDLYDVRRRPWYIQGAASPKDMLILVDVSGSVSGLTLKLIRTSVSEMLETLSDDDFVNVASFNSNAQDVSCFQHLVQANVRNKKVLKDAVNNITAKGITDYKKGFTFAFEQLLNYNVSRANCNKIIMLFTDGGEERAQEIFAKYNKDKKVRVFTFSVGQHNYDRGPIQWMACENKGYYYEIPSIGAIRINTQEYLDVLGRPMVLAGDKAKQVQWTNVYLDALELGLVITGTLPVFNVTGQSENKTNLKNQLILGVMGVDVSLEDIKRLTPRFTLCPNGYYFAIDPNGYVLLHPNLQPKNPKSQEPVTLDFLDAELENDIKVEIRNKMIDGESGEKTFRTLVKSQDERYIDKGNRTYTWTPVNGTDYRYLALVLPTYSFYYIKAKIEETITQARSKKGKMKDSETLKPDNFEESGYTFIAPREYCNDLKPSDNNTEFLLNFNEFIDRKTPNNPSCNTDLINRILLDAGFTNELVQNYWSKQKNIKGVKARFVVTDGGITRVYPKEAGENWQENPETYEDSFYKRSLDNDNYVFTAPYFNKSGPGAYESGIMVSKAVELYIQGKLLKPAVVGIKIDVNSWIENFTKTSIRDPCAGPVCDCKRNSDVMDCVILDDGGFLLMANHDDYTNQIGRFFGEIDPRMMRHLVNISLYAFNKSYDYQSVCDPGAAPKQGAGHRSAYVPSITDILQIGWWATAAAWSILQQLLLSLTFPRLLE
Sequence (P54290 945-1091 partner limits assumed): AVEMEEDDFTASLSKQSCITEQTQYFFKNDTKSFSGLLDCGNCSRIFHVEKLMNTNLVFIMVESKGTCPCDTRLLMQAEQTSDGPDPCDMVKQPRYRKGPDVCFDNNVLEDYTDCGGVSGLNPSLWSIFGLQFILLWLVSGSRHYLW

COMPOUND: COc1cc(C(=O)N2CCN(CCCCCC(c3ccc(F)cc3)c3ccc(F)cc3)CC2)cc(OC)c1OC
UNIT INFO: nM
BOUND TYPE: =
IC50: 110
//
COMPOUND: c1ccc(C(CN2CCN(C(c3ccccc3)c3ccccc3)CC2)c2ccccc2)cc1
UNIT INFO: nM
BOUND TYPE: >
IC50: 50000
//
COMPOUND: COc1cc(C(=O)N2CCN(C(=O)CCCCC(c3ccc(F)cc3)c3ccc(F)cc3)CC2)cc(OC)c1OC
UNIT INFO: nM
BOUND TYPE: =
IC50: 540
//
COMPOUND: O=C(CCC(c1ccccc1)c1ccccc1)N1CCN(C(c2ccccc2)c2ccccc2)CC1
UNIT INFO: nM
BOUND TYPE: =
IC50: 23000
//
COMPOUND: c1ccc(C(CCCCN2CCN(C(c3ccccc3)c3ccccc3)CC2)c2ccccc2)cc1
UNIT INFO: nM
BOUND TYPE: =
IC50: 20000
//
COMPOUND: O=C(C(c1ccccc1)c1ccccc1)N1CCN(C(c2ccccc2)c2ccccc2)CC1
UNIT INFO: nM
BOUND TYPE: >
IC50: 50000
//
COMPOUND: O=C(CCCCC(c1ccccc1)c1ccccc1)N1CCN(C/C=C/c2ccccc2)CC1 (stereo in doubt; 5c)
UNIT INFO: nM
BOUND TYPE: =
IC50: 120
//
COMPOUND: O=C(CCCCC(c1ccc(F)cc1)c1ccc(F)cc1)N1CCN(C/C=C/c2ccccc2)CC1
UNIT INFO: nM
BOUND TYPE: =
IC50: 90
//
COMPOUND: COc1cc(CN2CCN(C(=O)CCCCC(c3ccc(F)cc3)c3ccc(F)cc3)CC2)cc(OC)c1OC
UNIT INFO: nM
BOUND TYPE: =
IC50: 190
//
COMPOUND: COc1ccc(/C=C/C(=O)N2CCN(C(=O)CCCCC(c3ccccc3)c3ccccc3)CC2)cc1
UNIT INFO: nM
BOUND TYPE: =
IC50: 90
//
COMPOUND: Nc1ccc(/C=C/C(=O)N2CCN(C(=O)CCCCC(c3ccccc3)c3ccccc3)CC2)cc1
UNIT INFO: nM
BOUND TYPE: =
IC50: 150
//
COMPOUND: c1ccc(C(CCCN2CCN(C(c3ccccc3)c3ccccc3)CC2)c2ccccc2)cc1
UNIT INFO: nM
BOUND TYPE: =
IC50: 6000
//
COMPOUND: O=C(CC(c1ccccc1)c1ccccc1)N1CCN(C(c2ccccc2)c2ccccc2)CC1
UNIT INFO: nM
BOUND TYPE: =
IC50: 110
//
COMPOUND: O=C(CCCCC(c1ccccc1)c1ccccc1)N1CCN(C/C=C/c2cccc3c2OCO3)CC1
UNIT INFO: nM
BOUND TYPE: =
IC50: 190
//
COMPOUND: c1ccc(C(CCCCCN2CCN(C(c3ccccc3)c3ccccc3)CC2)c2ccccc2)cc1
UNIT INFO: nM
BOUND TYPE: =
IC50: 50000
//
COMPOUND: Fc1ccc(C(c2ccc(F)cc2)N2CCN(C/C=C/c3ccccc3)CC2)cc1
UNIT INFO: nM
BOUND TYPE: =
IC50: 80
//
COMPOUND: O=C(CCCC(c1ccccc1)c1ccccc1)N1CCN(C(c2ccccc2)c2ccccc2)CC1
UNIT INFO: nM
BOUND TYPE: >
IC50: 50000
//
COMPOUND: c1ccc(C(CCN2CCN(C(c3ccccc3)c3ccccc3)CC2)c2ccccc2)cc1
UNIT INFO: nM
BOUND TYPE: =
IC50: 5000
//
COMPOUND: O=C(CCCCC(c1ccccc1)c1ccccc1)N1CCN(C/C=C/c2ccccc2)CC1 (stereo in doubt; 5a)
UNIT INFO: nM
BOUND TYPE: =
IC50: 50
//
COMPOUND: O=C(/C=C/c1cccc2c1OCO2)N1CCN(C(=O)CCCCC(c2ccccc2)c2ccccc2)CC1
UNIT INFO: nM
BOUND TYPE: =
IC50: 130
//
COMPOUND: O=C(CCCCC(c1ccccc1)c1ccccc1)N1CCN(C(c2ccccc2)c2ccccc2)CC1
UNIT INFO: nM
BOUND TYPE: =
IC50: 50000
//
COMPOUND: COc1ccc(/C=C/CN2CCN(C(=O)CCCCC(c3ccccc3)c3ccccc3)CC2)cc1
UNIT INFO: nM
BOUND TYPE: =
IC50: 190

----------
species: Rattus norvegicus; assay: Selectivity ratio of IC50 for rat Voltage-dependent L-type calcium channel to IC50 for rat N-type calcium channel
Hi all, reminder that labels come from Ratio IC50, split as group 1 = under 3, group 2 = from 3 up to 6, group 3 = 6 and over

COMPOUND: O=C(/C=C/c1cccc2c1OCO2)N1CCN(C(=O)CCCCC(c2ccccc2)c2ccccc2)CC1
LABEL CLASS: group 2
--
COMPOUND: O=C(CCCCC(c1ccc(F)cc1)c1ccc(F)cc1)N1CCN(C/C=C/c2ccccc2)CC1
LABEL CLASS: group 1
--
COMPOUND: COc1ccc(/C=C/C(=O)N2CCN(C(=O)CCCCC(c3ccccc3)c3ccccc3)CC2)cc1
LABEL CLASS: group 1
--
COMPOUND: O=C(CCCCC(c1ccccc1)c1ccccc1)N1CCN(C/C=C/c2ccccc2)CC1 (stereo in doubt; 5c)
LABEL CLASS: group 1
--
COMPOUND: O=C(CCCCC(c1ccccc1)c1ccccc1)N1CCN(C/C=C/c2ccccc2)CC1 (stereo in doubt; 5a)
LABEL CLASS: group 3
--
COMPOUND: COc1ccc(CN2CCN(C(c3ccc(F)cc3)c3ccc(F)cc3)CC2)c(OC)c1OC [LOMERIZINE]
LABEL CLASS: group 1
--
COMPOUND: O=C(CC(c1ccccc1)c1ccccc1)N1CCN(C(c2ccccc2)c2ccccc2)CC1 [Z160]
LABEL CLASS: group 3
--
COMPOUND: Nc1ccc(/C=C/C(=O)N2CCN(C(=O)CCCCC(c3ccccc3)c3ccccc3)CC2)cc1
LABEL CLASS: group 2
--
COMPOUND: Fc1ccc(C(c2ccc(F)cc2)N2CCN(C/C=C/c3ccccc3)CC2)cc1 [FLUNARIZINE]
LABEL CLASS: group 2
--
COMPOUND: O=C(NC(c1ccccc1)c1ccccc1)N1CCN(C(c2ccccc2)c2ccccc2)CC1
LABEL CLASS: group 3

----------
test: AUC (0 to infinity) in rat at 10 mg/kg, po; conditions: plasma

COMPOUND STRUCTURE STRING: COc1cc(C(=O)N2CCN(CCCCCC(c3ccc(F)cc3)c3ccc(F)cc3)CC2)cc(OC)c1OC
UNIT INFO: ng·h/mL
AUC(0-inf): 1020

COMPOUND STRUCTURE STRING: O=C(CC(c1ccccc1)c1ccccc1)N1CCN(C(c2ccccc2)c2ccccc2)CC1
UNIT INFO: ng·h/mL
AUC(0-inf): 1140
